// data source = ChEMBL document CHEMBL1136554

IC50 values for the molecules below.
- assay.target: MAP kinase p38 (Homo sapiens, UniProt O15264+Q15759+Q16539+P53778)
- protocol: Inhibition of p38 kinase related TNF-alpha release
- Type: functional
For clarity, give the value followed by its unit.

>>> result("CC1(C)CC(Nc2cc3c(ccc(=O)n3-c3c(Cl)cccc3Cl)c(-c3ccccc3Cl)n2)CC(C)(C)N1")
"10 nM"
>>> result("CC(C)N1CCC(c2cc3c(ccc(=O)n3-c3c(Cl)cccc3Cl)c(-c3ccccc3Cl)n2)CC1")
"4.9 nM"

Given `CC(C)N1CCC(c2cc(-c3ccc(F)cc3Cl)c3c(c2)N(c2c(Cl)cccc2Cl)C(=O)CC3)CC1` , state its recorded IC50.
24 nM

====

- assay.target: MAP kinase p38 (Homo sapiens, UniProt O15264+Q15759+Q16539+P53778)
- protocol: Inhibition of p38 MAP kinase
- Format: protein assay
readout: IC50 (nM)
Answer in nM, number only, no unit symbol.

Example cases with answers are listed next.
>>> result("CN1C2CCC1CC(Nc1cc3c(ccc(=O)n3-c3c(Cl)cccc3Cl)c(-c3ccccc3Cl)n1)C2 (stereo not drawn)")
0.4
>>> result("CC(C)N1CCC(c2cc(-c3ccccc3Cl)c3ccc(=O)n(-c4c(Cl)cccc4Cl)c3c2)CC1")
0.2
>>> result("CN1C(C)(C)CC(Nc2cc3c(ccc(=O)n3-c3c(Cl)cccc3Cl)c(-c3ccccc3Cl)n2)CC1(C)C")
1.1
>>> result("CC(C)N1CCC(c2cc3c(ccc(=O)n3-c3c(Cl)cccc3Cl)c(-c3ccccc3Cl)n2)CC1")
1.3

Given `CC(C)N1CCC(Nc2cc3c(ccc(=O)n3-c3c(Cl)cccc3Cl)c(-c3ccccc3Cl)n2)CC1` , state its recorded IC50.
1.1

And then `CC(C)N1CCC(c2cc(-c3ccc(F)cc3Cl)c3c(c2)N(c2c(Cl)cccc2Cl)C(=O)CC3)CC1` , what is it?
0.8

And then `O=c1ccc2c(-c3ccccc3Cl)nc(NC3CCNCC3)cc2n1-c1c(Cl)cccc1Cl` , what is it?
0.2

And then `CC1(C)CC(Nc2cc3c(ccc(=O)n3-c3c(Cl)cccc3Cl)c(-c3ccccc3Cl)n2)CC(C)(C)N1` , what is it?
0.8

====

- assay.target: MAP kinase p38 (Homo sapiens, UniProt O15264+Q15759+Q16539+P53778)
- protocol: Inhibition of p38 kinase related TNF-alpha release
- Assay type: functional
readout: IC50 (nM)
Answer in nM, number only, no unit symbol.

>>> result("CN1C(C)(C)CC(Nc2cc3c(ccc(=O)n3-c3c(Cl)cccc3Cl)c(-c3ccccc3Cl)n2)CC1(C)C")
13
>>> result("CC(C)N1CCC(Nc2cc3c(ccc(=O)n3-c3c(Cl)cccc3Cl)c(-c3ccccc3Cl)n2)CC1")
51

Please look at the following compound next.
Provide the documented IC50 with MAP kinase p38 (Homo sapiens, UniProt O15264+Q15759+Q16539+P53778) as the system for `O=c1ccc2c(-c3ccccc3Cl)nc(NC3CCNCC3)cc2n1-c1c(Cl)cccc1Cl`
18

====

- assay.target: MAP kinase p38 (Homo sapiens, UniProt O15264+Q15759+Q16539+P53778)
- protocol: Inhibition of p38 MAP kinase
- Format: protein assay
readout: IC50 (nM)
Answer in nM, number only, no unit symbol.

Example cases with answers are listed next.
>>> result("CC1(C)CC(Nc2cc(-c3ccccc3Cl)c3c(c2)N(c2c(Cl)cccc2Cl)C(=O)NC3)CC(C)(C)N1")
3.7
>>> result("CC(C)N1CCC(Nc2cc(-c3ccccc3Cl)c3c(c2)N(c2c(Cl)cccc2Cl)C(=O)NC3)CC1")
1.6

Given CN1C2CCC1CC(Nc1cc(-c3ccccc3Cl)c3c(c1)N(c1c(Cl)cccc1Cl)C(=O)NC3)C2 (stereo not drawn) , state its recorded IC50.
0.4

====

clearance values for the compounds below.
- protocol: Plasma clearance measured in rat
- Type: ADME, organism-based
- condition.parameters: read-out: Clp
Answer in mL/min/kg, number only, no unit symbol.

Example cases with answers are listed next.
>>> result("CC1(C)CC(Nc2cc3c(ccc(=O)n3-c3c(Cl)cccc3Cl)c(-c3ccccc3Cl)n2)CC(C)(C)N1")
9.4
>>> result("CC(C)N1CCC(c2cc(-c3ccccc3Cl)c3ccc(=O)n(-c4c(Cl)cccc4Cl)c3c2)CC1")
39
>>> result("CC(C)N1CCC(c2cc(-c3ccc(F)cc3Cl)c3c(c2)N(c2c(Cl)cccc2Cl)C(=O)CC3)CC1")
70
>>> result("CC(C)N1CCC(c2cc3c(ccc(=O)n3-c3c(Cl)cccc3Cl)c(-c3ccccc3Cl)n2)CC1")
51

Given CN1C2CCC1CC(Nc1cc3c(ccc(=O)n3-c3c(Cl)cccc3Cl)c(-c3ccccc3Cl)n1)C2 (stereo not given) , state its recorded clearance.
38

====

- protocol: Oral bioavailability in rat
- Type: ADME, organism-based
- condition.parameters: in vivo
Mark Criterion not met for bioavailability values under 20%, and Criterion met for everything at or above.

Before answering, review these 4 worked examples.
>>> class_label("CC(C)N1CCC(c2cc3c(ccc(=O)n3-c3c(Cl)cccc3Cl)c(-c3ccccc3Cl)n2)CC1")
"Criterion met"
>>> class_label("CN1C2CCC1CC(Nc1cc3c(ccc(=O)n3-c3c(Cl)cccc3Cl)c(-c3ccccc3Cl)n1)C2 (stereo not given)")
"Criterion not met"
>>> class_label("CC(C)N1CCC(c2cc(-c3ccc(F)cc3Cl)c3c(c2)N(c2c(Cl)cccc2Cl)C(=O)CC3)CC1")
"Criterion not met"
>>> class_label("CC(C)N1CCC(c2cc(-c3ccccc3Cl)c3ccc(=O)n(-c4c(Cl)cccc4Cl)c3c2)CC1")
"Criterion not met"

With those in mind, consider the next compound.
Please tell me: is the compound `CC1(C)CC(Nc2cc3c(ccc(=O)n3-c3c(Cl)cccc3Cl)c(-c3ccccc3Cl)n2)CC(C)(C)N1` at or over 20% in terms of bioavailability?
Criterion not met

====

IC50 values for the compounds below.
- assay.target: MAP kinase p38 (Homo sapiens, UniProt O15264+Q15759+Q16539+P53778)
- protocol: Inhibition of p38 kinase related TNF-alpha release
- Type: functional
Answer in nM, number only, no unit symbol.

Example cases with answers are listed next.
>>> result("CN1C2CCC1CC(Nc1cc3c(ccc(=O)n3-c3c(Cl)cccc3Cl)c(-c3ccccc3Cl)n1)C2 (stereo not given)")
24
>>> result("CC(C)N1CCC(Nc2cc(-c3ccccc3Cl)c3c(c2)N(c2c(Cl)cccc2Cl)C(=O)NC3)CC1")
31
>>> result("CN1C2CCC1CC(Nc1cc(-c3ccccc3Cl)c3c(c1)N(c1c(Cl)cccc1Cl)C(=O)NC3)C2 (stereo not given)")
20
>>> result("CC(C)N1CCC(c2cc(-c3ccccc3Cl)c3ccc(=O)n(-c4c(Cl)cccc4Cl)c3c2)CC1")
5.5

Please look at the following compound next.
Given `CC1(C)CC(Nc2cc(-c3ccccc3Cl)c3c(c2)N(c2c(Cl)cccc2Cl)C(=O)NC3)CC(C)(C)N1` , state its recorded IC50.
200
